All values here come from patent US10882865B2.

ASSAY SYSTEM: glucocerebrosidase (GCase) (Homo sapiens)
Sequence (P04062 40-536): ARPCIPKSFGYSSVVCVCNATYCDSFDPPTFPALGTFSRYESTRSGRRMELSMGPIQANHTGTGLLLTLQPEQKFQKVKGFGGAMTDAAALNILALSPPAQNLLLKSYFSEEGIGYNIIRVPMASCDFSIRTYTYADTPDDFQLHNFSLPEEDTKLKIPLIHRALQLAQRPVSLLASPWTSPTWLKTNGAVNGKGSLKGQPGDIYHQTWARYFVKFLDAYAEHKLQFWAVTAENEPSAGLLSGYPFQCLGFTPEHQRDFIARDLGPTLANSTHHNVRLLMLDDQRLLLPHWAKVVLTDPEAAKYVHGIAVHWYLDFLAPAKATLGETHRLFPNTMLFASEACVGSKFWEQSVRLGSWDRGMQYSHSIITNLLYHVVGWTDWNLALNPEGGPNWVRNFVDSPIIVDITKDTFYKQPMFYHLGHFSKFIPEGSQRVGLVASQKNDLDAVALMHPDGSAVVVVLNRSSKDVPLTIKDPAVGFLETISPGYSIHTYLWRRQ
EXPERIMENTAL PROTOCOL: Glucocerebrosidase activation (Table 1, Exemplary Compounds and Activities)
Format: biochemical
MEASUREMENT CONDITIONS: activation of glucocerebrosidase
PROPERTY NAME: AC50 (µM)
Report the value in µM with no unit label.

// Cc1cc(C)n2ccc(C(=O)Nc3ccc4c(c3)C(=O)CC4)c2n1 [compound 16] : AC50 value = 1.49

// Cc1cc(C)n2ccc(C(=O)Nc3ccccc3Oc3ccccc3)c2n1 [compound 35] : AC50 value = 2.24

// Cc1cc(C)n2ccc(C(=O)NCC3COc4ccccc4O3)c2n1 (stereo not shown) [compound 23] : AC50 value = 28.2

// Cc1cc(C)n2ccc(C(=O)Nc3cccc(CC(=O)Oc4ccccc4)c3)c2n1 [compound 50] : AC50 value = 4.47

// Cc1cc(C)n2ccc(C(=O)Nc3ccc(C(=O)ON4C(=O)CCC4=O)cc3)c2n1 [compound 28] : AC50 value = 50

// CCOC(=O)c1cccc(NC(=O)c2ccn3c(C)cc(C)nc23)c1 [compound 4] : AC50 value = 1.18

// COC(=O)CCc1cccc(NC(=O)c2ccn3c(C)cc(C)nc23)c1 [compound 34] : AC50 value = 3.55

// C=CC(=O)Nc1cccc(NC(=O)c2ccn3c(C)cc(C)nc23)c1 [compound 14] : AC50 value = 6.46

// CCOC(=O)c1ccc(NC(=O)c2ccn3c(C)cc(C)nc23)cc1 [compound 19] : AC50 value = 0.71

// Cc1cc(C)n2ccc(C(=O)Nc3ccc(-c4cn(CCOCCOCCO)nn4)c(CC(=O)O)c3)c2n1 [compound 41] : AC50 value = 28.2

// Cc1cc(C)n2ccc(C(=O)NCc3ccccc3CNC(=O)c3ccn4c(C)cc(C)nc34)c2n1 [compound 42] : AC50 value = 5

// Cc1cc(C)n2ccc(C(=O)Nc3cccc(C(=O)ON4C(=O)CCC4=O)c3)c2n1 [compound 6] : AC50 value = 4.59

// Cc1cc(C)n2ccc(C(=O)Nc3ccc(C(=O)O)cc3)c2n1 [compound 21] : AC50 value = 35.5

// Cc1cc(C)n2ccc(C(=O)Nc3cccc(N)c3)c2n1 [compound 7] : AC50 value = 3.39

// COC(=O)CCc1ccc(NC(=O)c2ccn3c(C)cc(C)nc23)cc1 [compound 13] : AC50 value = 0.63

// COC(=O)Cc1cc(NC(=O)c2ccn3c(C)cc(C)nc23)ccc1-c1cn(CCOCCOCCO)nn1 [compound 39] : AC50 value = 10

// Cc1cc(C)n2ccc(C(=O)Nc3cccc(Oc4ccccc4)c3)c2n1 [compound 36] : AC50 value = 1.42

// Cc1cc(C)n2ccc(C(=O)Nc3ccc4c(c3)CCCC4=O)c2n1 [compound 31] : AC50 value = 1

// Cc1cc(C)n2ccc(C(=O)Nc3cccc(CC(=O)ON4C(=O)CCC4=O)c3)c2n1 [compound 3] : AC50 value = 9.09

// Cc1cc(C)n2ccc(C(=O)Nc3ccc(CC(=O)ON4C(=O)CCC4=O)cc3)c2n1 [compound 29] : AC50 value = 4.47

// Cc1cc(C)n2ccc(C(=O)Nc3cccc(CC(=O)Oc4ccc([N+](=O)[O-])cc4)c3)c2n1 [compound 51] : AC50 value = 10

// Cc1cc(C)n2ccc(C(=O)Nc3cccc4c3CCCC4)c2n1 [compound 11] : AC50 value = 1.41
